Attribute: MFC
Tested on: Candida tropicalis
Test: Antifungal activity on Candida tropicalis MY101
Format: functional
Starred links: 1 amine or outer side, 2 acyl side, 3 side chain; linkers in the order of their positions; H or OH if unused. Positions of bridges follow the written chain, without caps; N, C: chain ends. Non-standard residues stand in square brackets, D forms with d. Residues, ends and D or L forms follow the SMILES beside them. *: point of attachment. Orn(4R-OH,5R-OH) = O=C([C@H](C[C@@H](O)[C@@H](O)N[*:3])N[*:1])[*:2]; hTyr(3S-OH,4S-OH) = N[C@H](C(=O)O)[C@H](O)[C@@H](O)c1ccc(O)cc1; Pro(3S-OH,4S-Me) = C[C@H]1CN[C@H](C(=O)O)[C@H]1O; Benzoyl(4-octyloxy) = CCCCCCCCOc1ccc(C(=O)*)cc1; hTyr = N[C@@H](CCc1ccc(O)cc1)C(=O)O; Hyp = O=C(O)[C@@H]1C[C@@H](O)CN1; Orn = NCCC[C@H](N)C(=O)O

# molecule, op, MFC / µg/mL
rows = [
    ("CCCCCCCCOc1ccc(C(=O)N[C@H]2CCCNC(=O)[C@@H]3C[C@@H](O)CN3C(=O)[C@H]([C@@H](C)O)NC(=O)[C@H](CCc3ccc(O)cc3)NC(=O)[C@@H]3C[C@@H](O)CN3C(=O)[C@H]([C@@H](C)O)NC2=O)cc1 ({Benzoyl(4-octyloxy)}-[Orn]T[Hyp][hTyr]T[Hyp]; lactam 1-C)", "=", 8),
    ("CCCCCCCCOc1ccc(C(=O)N[C@H]2CCCNC(=O)[C@@H]3CCCN3C(=O)[C@H]([C@@H](C)O)NC(=O)[C@H](CCc3ccc(O)cc3)NC(=O)[C@@H]3C[C@@H](O)CN3C(=O)[C@H]([C@@H](C)O)NC2=O)cc1 ({Benzoyl(4-octyloxy)}-[Orn]T[Hyp][hTyr]TP; lactam 1-C)", "=", 0.25),
    ("CCCCCCCCOc1ccc(C(=O)N[C@H]2CCCNC(=O)[C@@H]3[C@@H](O)[C@@H](C)CN3C(=O)[C@H]([C@@H](C)O)NC(=O)[C@H](CCc3ccc(O)cc3)NC(=O)[C@@H]3C[C@@H](O)CN3C(=O)[C@H]([C@@H](C)O)NC2=O)cc1 ({Benzoyl(4-octyloxy)}-[Orn]T[Hyp][hTyr]T[Pro(3S-OH,4S-Me)]; lactam 1-C)", "=", 1),
    ("CCCCCCCCOc1ccc(C(=O)N[C@H]2C[C@@H](O)[C@@H](O)NC(=O)[C@@H]3[C@@H](O)[C@@H](C)CN3C(=O)[C@H]([C@@H](C)O)NC(=O)[C@H]([C@H](O)[C@@H](O)c3ccc(O)cc3)NC(=O)[C@@H]3C[C@@H](O)CN3C(=O)[C@H]([C@@H](C)O)NC2=O)cc1 [CILOFUNGIN] ({Benzoyl(4-octyloxy)}-[Orn(4R-OH,5R-OH)]T[Hyp][hTyr(3S-OH,4S-OH)]T[Pro(3S-OH,4S-Me)]; lactam 1-C)", "=", 0.5),
    ("CCCCCCCCOc1ccc(C(=O)N[C@H]2CCCNC(=O)[C@@H]3[C@@H](O)[C@@H](C)CN3C(=O)[C@H]([C@@H](C)O)NC(=O)[C@H](Cc3ccc(O)cc3)NC(=O)[C@@H]3C[C@@H](O)CN3C(=O)[C@H]([C@@H](C)O)NC2=O)cc1 ({Benzoyl(4-octyloxy)}-[Orn]T[Hyp]YT[Pro(3S-OH,4S-Me)]; lactam 1-C)", ">", 128),
    ("CCCCCCCCOc1ccc(C(=O)N[C@H]2CCCNC(=O)[C@@H]3CCCN3C(=O)[C@H]([C@@H](C)O)NC(=O)[C@H](Cc3ccc(O)cc3)NC(=O)[C@@H]3CCCN3C(=O)[C@H]([C@@H](C)O)NC2=O)cc1 ({Benzoyl(4-octyloxy)}-[Orn]TPYTP; lactam 1-C)", ">", 64),
    ("CCCCCCCCOc1ccc(C(=O)N[C@H]2CCCNC(=O)[C@@H]3C[C@@H](O)CN3C(=O)[C@H]([C@@H](C)O)NC(=O)[C@H](Cc3ccc(O)cc3)NC(=O)[C@@H]3CCCN3C(=O)[C@H]([C@@H](C)O)NC2=O)cc1 ({Benzoyl(4-octyloxy)}-[Orn]TPYT[Hyp]; lactam 1-C)", ">", 128),
    ("CCCCCCCCOc1ccc(C(=O)N[C@H]2CCCNC(=O)[C@@H]3CCCN3C(=O)[C@H]([C@@H](C)O)NC(=O)[C@H](Cc3ccc(O)cc3)NC(=O)[C@@H]3C[C@@H](O)CN3C(=O)[C@H]([C@@H](C)O)NC2=O)cc1 ({Benzoyl(4-octyloxy)}-[Orn]T[Hyp]YTP; lactam 1-C)", ">", 128),
    ("CCCCCCCCOc1ccc(C(=O)N[C@H]2CCCNC(=O)[C@@H]3C[C@@H](O)CN3C(=O)[C@H]([C@@H](C)O)NC(=O)[C@H](Cc3ccc(O)cc3)NC(=O)[C@@H]3C[C@@H](O)CN3C(=O)[C@H]([C@@H](C)O)NC2=O)cc1 ({Benzoyl(4-octyloxy)}-[Orn]T[Hyp]YT[Hyp]; lactam 1-C)", ">", 128),
    ("C[C@@H](O)[C@@H]1NC(=O)[C@H](CCc2ccc(O)cc2)NC(=O)[C@@H]2C[C@@H](O)CN2C(=O)[C@H]([C@@H](C)O)NC(=O)[C@@H](N)CCCNC(=O)[C@H]([C@@H](C)O)NC1=O (H-[Orn]T[Hyp][hTyr]TT; lactam 1-C)", "=", 4),
    ("CCCCCCCCOc1ccc(C(=O)N[C@H]2CCCNC(=O)[C@@H]3CCCN3C(=O)[C@H]([C@@H](C)O)NC(=O)[C@H](CCc3ccc(O)cc3)NC(=O)[C@@H]3CCCN3C(=O)[C@H]([C@@H](C)O)NC2=O)cc1 ({Benzoyl(4-octyloxy)}-[Orn]TP[hTyr]TP; lactam 1-C)", "=", 4),
]
